The measurements presented in this section are drawn from PubChem BioAssay AID1963870.

# Tested on: 292921-168-R-J2-PDC KRAS tumor spheroid viability
# experiment: Anticancer human tumor 292921-168-R-J2-PDC patient-derived pancreatic carcinoma cell line growth inhibition [KRAS2]
# experimentalConditions: second compound 10 µM; first compound 0.316 µM; hits give low values; spheroids with HUVEC and MSC
quantity: viability, T/C (%)
# number only, unit % dropped from output

Q. Requested field: viability, T/C. Item: COc1cc2nccc(Oc3ccc(NC(=O)C4(C(=O)Nc5ccc(F)cc5)CC4)cc3)c2cc1OC + C=CC(=O)N1CCN(c2nc(=O)n(-c3c(C)ccnc3C(C)C)c3nc(-c4c(O)cccc4F)c(F)cc23)C(C)C1
A. 15.7

Q. Lookup CCNC(=O)CC1N=C(c2ccc(Cl)cc2)c2cc(OC)ccc2-n2c(C)nnc21 (stereo not given) + C=CC(=O)N1CCN(c2nc(=O)n(-c3c(C)ccnc3C(C)C)c3nc(-c4c(O)cccc4F)c(F)cc23)C(C)C1
A. 23.8

Q. Lookup CC1COCCN1c1cc(-c2ccnn2C)c2ccnc(-c3ccn[nH]3)c2n1 (stereo not given) + COc1cc2nc(C)nc(NC(C)c3cc(N)cc(C(F)(F)F)c3)c2cc1OC1CCOC1
A. 8.21

Q. Lookup CCN1CCN(Cc2ccc(Nc3ncc(F)c(-c4cc(F)c5nc(C)n(C(C)C)c5c4)n3)nc2)CC1 + CNCc1ccccc1-c1csc(C(C)Nc2nc(C)nc3cc(OC)c(OC)cc23)c1
A. 0.08

Q. Lookup Cn1nccc1Nc1nccc(-c2cc3c(s2)C(C)(C)N(CCN2CCOCC2)C3=O)n1 + C=CC(=O)N1CCN(c2nc(=O)n(-c3c(C)ccnc3C(C)C)c3nc(-c4c(O)cccc4F)c(F)cc23)C(C)C1
A. 14.6

* * *

# System: 292921-168-R-J2-PDC KRAS tumor spheroid viability
# experiment: Anticancer human tumor 292921-168-R-J2-PDC cell line growth inhibition [KRAS2];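 note: drug exposure lasted seven days after spheroids formed for three days; percent of DMSO vehicle control viability which is 100%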
# experimentalConditions: second compound 1 µM; first compound 0.1 µM; hits give low values; spheroids with HUVEC and MSC
Exercise: state measured viability, T/C for each of the compounds provided.
# number only, unit % dropped from output

Q. Requested field: viability, T/C. Item: CC(C)n1nc(-c2ccc3oc(N)nc3c2)c2c(N)ncnc21 + C=CC(=O)N1CCN(c2nc(=O)n(-c3c(C)ccnc3C(C)C)c3nc(-c4c(O)cccc4F)c(F)cc23)C(C)C1
A. 32.3

Q. Lookup Cn1nccc1Nc1nccc(-c2cc3c(s2)C(C)(C)N(CCN2CCOCC2)C3=O)n1 + C=CC(=O)N1CCN(c2nc(=O)n(-c3c(C)ccnc3C(C)C)c3nc(-c4c(O)cccc4F)c(F)cc23)C(C)C1
A. 52.7

Q. Lookup CCNC(=O)CC1N=C(c2ccc(Cl)cc2)c2cc(OC)ccc2-n2c(C)nnc21 (stereo not drawn) + C=CC(=O)N1CCN(c2nc(=O)n(-c3c(C)ccnc3C(C)C)c3nc(-c4c(O)cccc4F)c(F)cc23)C(C)C1
A. 97

* * *

# Test system: 292921-168-R-J2-PDC KRAS tumor spheroid viability
# experiment: Anticancer human tumor 292921-168-R-J2-PDC cell line growth inhibition [KRAS2];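 note: drug exposure lasted seven days after spheroids formed for three days; percent of DMSO vehicle control viability which is 100%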
# experimentalConditions: second compound 10 µM; first compound 0.1 µM; hits give low values; spheroids with HUVEC and MSC
Exercise: state measured viability, T/C for each of the compounds provided.

Q. Requested field: viability, T/C. Item: Cn1nccc1Nc1nccc(-c2cc3c(s2)C(C)(C)N(CCN2CCOCC2)C3=O)n1 + CNCc1ccccc1-c1csc(C(C)Nc2nc(C)nc3cc(OC)c(OC)cc23)c1
A. 0.09%

Q. Lookup CC1COCCN1c1cc(-c2ccnn2C)c2ccnc(-c3ccn[nH]3)c2n1 (stereo unspecified) + CNCc1ccccc1-c1csc(C(C)Nc2nc(C)nc3cc(OC)c(OC)cc23)c1
A. 0.27%

Q. Lookup CC(=O)OC12COC1CC(O)C1(C)C(=O)C(O)C3=C(C)C(OC(=O)C(O)C(NC(=O)OC(C)(C)C)c4ccccc4)CC(O)(C(OC(=O)c4ccccc4)C21)C3(C)C (stereo unspecified) + CC1OCC2(CCN(c3cnc(Sc4ccnc(N)c4Cl)c(N)n3)CC2)C1N
A. 11.8%

Q. Lookup CC1COCCN1c1cc(-c2ccnn2C)c2ccnc(-c3ccn[nH]3)c2n1 (stereo unspecified) + COc1cc2nc(C)nc(NC(C)c3cc(N)cc(C(F)(F)F)c3)c2cc1OC1CCOC1
A. 9.42%

Q. Lookup CCNC(=O)CC1N=C(c2ccc(Cl)cc2)c2cc(OC)ccc2-n2c(C)nnc21 (stereo unspecified) + C=CC(=O)N1CCN(c2nc(=O)n(-c3c(C)ccnc3C(C)C)c3nc(-c4c(O)cccc4F)c(F)cc23)C(C)C1
A. 26.2%

Q. Lookup COC(=O)c1ccc2c(C(=Nc3ccc(N(C)C(=O)CN4CCN(C)CC4)cc3)c3ccccc3)c(O)[nH]c2c1 + COc1cc2nc(C)nc(NC(C)c3cc(N)cc(C(F)(F)F)c3)c2cc1OC1CCOC1
A. 44.2%

Q. Lookup CN(C)C/C=C/C(=O)Nc1cc2c(Nc3ccc(F)c(Cl)c3)ncnc2cc1O[C@H]1CCOC1 + CC1OCC2(CCN(c3cnc(Sc4ccnc(N)c4Cl)c(N)n3)CC2)C1N
A. 85.5%

Q. Lookup Cn1ncnc1[C@H]1c2n[nH]c(=O)c3cc(F)cc(c23)N[C@@H]1c1ccc(F)cc1 + COc1cc2nc(C)nc(NC(C)c3cc(N)cc(C(F)(F)F)c3)c2cc1OC1CCOC1
A. 23.9%

Q. Lookup Cn1nccc1Nc1nccc(-c2cc3c(s2)C(C)(C)N(CCN2CCOCC2)C3=O)n1 + CC1OCC2(CCN(c3cnc(Sc4ccnc(N)c4Cl)c(N)n3)CC2)C1N
A. 17.6%

Q. Lookup CC(C)NCC(C(=O)N1CCN(c2ncnc3c2C(C)CC3O)CC1)c1ccc(Cl)cc1 (stereo unspecified) + C=CC(=O)N1CCN(c2nc(=O)n(-c3c(C)ccnc3C(C)C)c3nc(-c4c(O)cccc4F)c(F)cc23)C(C)C1
A. 22.1%

Q. Lookup CCN1CCN(Cc2ccc(Nc3ncc(F)c(-c4cc(F)c5nc(C)n(C(C)C)c5c4)n3)nc2)CC1 + COc1cc2nc(C)nc(NC(C)c3cc(N)cc(C(F)(F)F)c3)c2cc1OC1CCOC1
A. 14.8%
